Readings of refractive index for the listed molecules
Assay: refractive index (Na D-line) (dimensionless)
Conditions: 298.15 K; 101.33 kPa; Liquid; Standard Abbe refractometry
readout_name: refractive index

* CCOCCOCCOCCO | 1.43623
* CC(Cl)CCl (stereo unspecified) | 1.43656
* CCCCOCCOCCOCCO | 1.43973
* CCCCOCCOCCO | 1.42998
* COCCOCCOCCO [2-[2-(2-methoxyethoxy)ethoxy]ethanol] | 1.43673
* CCCOCCOCCO | 1.42727

* * *

Conditions: 298.15 K; 101.33 kPa; Liquid; Vibrating tube method
Please use satisfied whenever mass density is not below 1000 kg/m3, and not satisfied whenever it is.

* CCCOCCOCCO | not satisfied
* CCCCOCCOCCO | not satisfied
* CC(Cl)CCl (stereo unspecified) | satisfied
* COCCOCCOCCO [2-[2-(2-methoxyethoxy)ethoxy]ethanol] | satisfied
